Reported CORN phytotoxicity rating (crop damage) values are given for each entry in this list.
- System: field corn (Zea mays L., var. Dekalb 535, CORN)
- assay_protocol: Post-emerge test, crop safety
- Format: in vivo
- condition_details: post-emerge, 250 g ai/ha, 14 days after application, rating scale 0-100
// response body must contain only the number

Study these solved cases before continuing.
| chemical_smiles | CORN phytotoxicity rating (crop damage) |
| --- | --- |
| COc1c(Cl)cc(F)c(-n2c(=O)cc(C(F)(F)F)n(C)c2=O)c1NC(=O)COc1ccc(Cl)cc1 | 25 |
| Cn1c(C(F)(F)F)cc(=O)n(-c2ccc(C(F)(F)F)cc2NC(=O)c2ccc3ccccc3c2)c1=O | 15 |
| Cn1c(C(F)(F)F)cc(=O)n(-c2c(F)cc(OC(F)F)cc2NC(=O)c2ccc3ccccc3c2)c1=O | 30 |

// recorded CORN phytotoxicity rating (crop damage) for Cn1c(C(F)(F)F)cc(=O)n(-c2ccc(Cl)cc2NC(=O)C=Cc2ccccc2)c1=O : 60
